Measurement notes: self-splicing fitness, log relative to wild type (ln ratio); higher = more splicing; Tetrahymena group I intron in knt gene, E. coli kanamycin selection, DiMSum; sequences stand for … in CUCUCU…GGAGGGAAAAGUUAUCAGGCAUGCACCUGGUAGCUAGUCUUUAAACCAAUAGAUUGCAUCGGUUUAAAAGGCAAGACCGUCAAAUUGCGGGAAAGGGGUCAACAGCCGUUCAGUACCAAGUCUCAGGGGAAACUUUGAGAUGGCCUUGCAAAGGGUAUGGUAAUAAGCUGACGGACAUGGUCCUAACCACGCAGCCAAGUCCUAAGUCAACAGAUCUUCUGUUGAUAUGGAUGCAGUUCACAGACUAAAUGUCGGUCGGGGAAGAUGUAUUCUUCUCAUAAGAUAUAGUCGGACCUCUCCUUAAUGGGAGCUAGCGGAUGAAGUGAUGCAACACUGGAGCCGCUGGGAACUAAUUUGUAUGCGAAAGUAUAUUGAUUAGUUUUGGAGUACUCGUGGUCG;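 note: selection with 25 µg/mL kanamycin versus none on LB agar overnight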
Conditions: 30 °C
Attribute measured: self-splicing fitness (ln)

Query: Suppose we examine the sequence "GACUAGCAAUAUUACGGCGC" ; what self-splicing fitness (ln) value has been reported?
Result: 0.0438

Query: Consider the sequence shown here: "ACAUAGCAAUAUUACGUCAG" What is its recorded self-splicing fitness (ln)?
Result: -2.66

Query: Quick one: self-splicing fitness (ln) of "UUACAGCAAUAUUACGCCUC" ?
Result: -3.31

Query: Sample "CAAGAGCAAUAUUACGGUUC" — what was its self-splicing fitness (ln)?
Result: -3.57

Query: # self-splicing fitness (ln) lookup, item "CUCGAGCAAUAUUACGUCGU"
Result: -1.77

Query: Give its self-splicing fitness (ln) value. Item: "GCGUAGCAAUAUUACGUAAA"
Result: -0.977

Query: Item under review: "ACUUAGCAAUAUUACGGCCC" . Reported self-splicing fitness (ln)?
Result: -1.01

Query: # query: self-splicing fitness (ln) of entry "AGCCAGCAAUAUUACGCCGU"
Result: -2.54

Query: Any idea what its self-splicing fitness (ln) is? The sequence is "ACAUAGCAAUAUUACGGGUU"
Result: -2.41

FYI, the data here is from the supplement of paper PMC7877785.
